Measured pKd values are reported for all entries that follow.
# tested.target: T1, PUF4 RNA-binding domain (Saccharomyces cerevisiae, UniProt P25339 537-888)
# T1 sequence: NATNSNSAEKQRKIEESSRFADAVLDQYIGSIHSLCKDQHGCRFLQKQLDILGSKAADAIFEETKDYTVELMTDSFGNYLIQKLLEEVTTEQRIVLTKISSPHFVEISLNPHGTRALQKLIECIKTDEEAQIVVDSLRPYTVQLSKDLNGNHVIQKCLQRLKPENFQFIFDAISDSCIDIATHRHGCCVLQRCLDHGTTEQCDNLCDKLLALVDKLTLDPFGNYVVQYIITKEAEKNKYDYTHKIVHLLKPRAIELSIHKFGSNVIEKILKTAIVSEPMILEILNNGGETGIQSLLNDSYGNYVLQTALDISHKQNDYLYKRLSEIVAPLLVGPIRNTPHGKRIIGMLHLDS
# measurement.notes: Mg; RNA-MaP; 20 mM Na-HEPES pH 7.4, 30 mM KOAc, 0.75 mM MgCl2, 0.1% Tween-20, 5% glycerol, 0.1 mg/mL BSA, 2 mM DTT; 25 C; 0.0125-409.6 nM protein
# stated.conditions: tags: N-His6-TEV cleaved; C-SNAP kept, Cy3B-labelled; label: tethered on chip by stalled RNA polymerase
Here pKd is given on a logarithmic scale as minus log10 of the concentration in mol/L.

Please review the following examples before continuing.
Ib_S4_P5E.1_K5.1_C5.1_H5.1_[G2C]_A5.1_[T6C]_F5.1_T5.1 (ssRNA) RNA: UUUGACAACUGAUCGUUCUUUCUUCUAUCAUUAUUCUUUCUCGAUCAGUUGUCUUU: 5.71
UCUCUUUUACACUAUUAUAUCUCUU (ssRNA) [Id_ii_S1_P4E.4_K4.3_C4.2_[C-2T]_H4.3_A4.1_F4.1_T4.2_[G10T]_[T11A]]: 6.02

Now look at this one.
Exercise: Query (binder): UCUCUUACUGUAUAUUAUUUCUCUU (ssRNA) [Id_ii_S1_P4E.2_K4.1_C4.2_[C-2A]_[T-1C]_H4.1_A4.1_F4.1_T4.2_[G10T]] ; field requested: pKd
Solution: 8.86
